# target or system: MycN (Homo sapiens, UniProt P04198)
# Construct: endogenous in cells; host or cells: SK-N-BE(2)
# Sequence (P04198 whole entry): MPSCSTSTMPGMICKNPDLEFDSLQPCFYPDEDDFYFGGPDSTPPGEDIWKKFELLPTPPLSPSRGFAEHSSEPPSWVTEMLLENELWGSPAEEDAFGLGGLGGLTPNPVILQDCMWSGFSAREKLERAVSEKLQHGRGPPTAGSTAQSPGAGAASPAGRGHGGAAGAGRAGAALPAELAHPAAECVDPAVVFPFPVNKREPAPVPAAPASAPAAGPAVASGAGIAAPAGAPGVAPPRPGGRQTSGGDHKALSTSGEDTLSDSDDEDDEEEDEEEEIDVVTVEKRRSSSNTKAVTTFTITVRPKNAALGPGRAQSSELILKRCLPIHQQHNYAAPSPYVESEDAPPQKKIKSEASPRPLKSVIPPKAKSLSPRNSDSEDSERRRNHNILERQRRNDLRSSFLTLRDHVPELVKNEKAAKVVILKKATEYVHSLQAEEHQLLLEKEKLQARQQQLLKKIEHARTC
# assay protocol: Degradation of MycN protein in SK-N-BE(2) cells, JESS/Western blot of lysates
# Format: cell-based
# condition: SKNBE2, 24 h, read-out: % Degradation of MycN (SKNBE2) 24 h, 6 μM
Dmax at 6 µM listing for selected molecules.

>  <molecule>
N#CC1(CN)CCCN(c2nccc(Nc3cc(C4CC4)[nH]n3)n2)C1 (stereo not drawn) [Compound 119]

>  <Dmax at 6 µM>
80 to 100%

$$$$
>  <molecule>
NCC1CN(c2nccc(Nc3cc(C4CC4)[nH]n3)n2)CC(F)(F)C1 (stereo not drawn) [Compound 121]

>  <Dmax at 6 µM>
80 to 100%

$$$$
>  <molecule>
NCC12CC(C1)N(c1nccc(Nc3cc(C4CC4)[nH]n3)n1)C2 [Compound 30]

>  <Dmax at 6 µM>
80 to 100%

$$$$
